Each recorded value in this set is attributed to the array DNA melting data of Ke et al..

# assay_name: melting temperature; melt of duplexes
# experimental_conditions: sodium 0.0675 M; strand 1 µM
measurement_kind: Tm
Value and unit, in that order.

Example entries and their recorded answers appear below.
[
  {
    "substance": "CGACGTGCGCTATGTGCTG+CAGCACATTGTGCACGTCG ((((((((.(.((((((((+)))))))).).))))))))",
    "result": "51.9 °C"
  },
  {
    "substance": "CGACGTGCCCAATGTGCTG+CAGCACATCTAGCACGTCG ((((((((...((((((((+))))))))...))))))))",
    "result": "48.8 °C"
  },
  {
    "substance": "CGACGTGCTCTATGTGCTG+CAGCACATATTGCACGTCG ((((((((..(((((((((+)))))))))..))))))))",
    "result": "50.9 °C"
  },
  {
    "substance": "CGACGTGCCGGATGTGCTG+CAGCACATATAGCACGTCG ((((((((...((((((((+))))))))...))))))))",
    "result": "49.9 °C"
  },
  {
    "substance": "CGACGTGCACCATGTGCTG+CAGCACATTAAGCACGTCG ((((((((...((((((((+))))))))...))))))))",
    "result": "43.9 °C"
  }
]

Value lookup for Tm; key = CGACGTGCCATATGTGCTG+CAGCACATAACGCACGTCG ((((((((..(((((((((+)))))))))..))))))))
49.1 °C

Endpoint output: Tm of CGACGTGCTGTATGTGCTG+CAGCACATGTGGCACGTCG ((((((((...((((((((+))))))))...)))))))) . Value?
51 °C
